Source of measurements: PubChem BioAssay (NCATS)

Test: qHTS for Antimalaria activity screened against the NCATS CANVASS Library (AID 1347380);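 further: Plasmodium falciparum strain Dd2 asexual parasites grown in red blood cells; nearly all actives have a fitted effect of over 40% in size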
Conditions: P. falciparum Dd2 growth, SYBR Green fluorescence, 72 h; series mostly up to 28.7 µM
Results filed as inconclusive are left out. Active and inactive are the calls of the source. The call rests on the fitted dose curve; in most records, active means well fitted cell-killing curve with a large enough effect; inconclusive means small, poorly fitted or top-dose-only effect, or effect the other way; inactive means no such curve, though single readings can be large or run the other way.
Field 'call' accepts active, inactive

Below, 4 molecules whose answers are already recorded.
- molecule: "OCc1ccc2ocnc2c1"
  assignedClass: "inactive"
- molecule: "C=C1C[C@@]23C=CC(=O)[C@@](C)(CCCC(C)C(=O)O)[C@@H]2C[C@@H]1CC3 (stereo not given in full)"
  assignedClass: "inactive"
- molecule: "C=C[C@@]1(C)CC[C@@H]([C@H](C)C(=O)/C=C/C(C)C)O1"
  assignedClass: "inactive"
- molecule: "CC12C[C@]3(O)O[C@@H](O1)[C@]1(COC(=O)c4ccccc4)[C@@H]3CC21OC1OC(CO)C(O)C(O)C1O (stereo not given in full)"
  assignedClass: "inactive"

## Input What did the test return for `C[C@@H]1C(=O)[C@]23CC[C@H]1C[C@]21O[C@H]2C(C)(C)C=CC(=O)[C@]23COC1=O` ?
## Output inactive

====

Test system: Zika virus NS2B-NS3 protease (linked construct)
Assay: Primary screen NINDS Rhodamine qHTS for Zika virus inhibitors (AID 1347160); further: nearly all actives have a fitted effect of over 55% in size
Conditions: purified NS2B-NS3 protease, Rhodamine110 substrate fluorescence; series mostly up to 57.1 µM
Results filed as inconclusive are left out. Active and inactive are the calls of the source. Calls come from the whole dose curve; as a rule, active = well fitted inhibition curve with a large enough effect; inconclusive = small, poorly fitted or top-dose-only effect; inactive = no such curve, though single readings can be large or run the other way.
Field 'call' accepts label 1 for active, label 0 for inactive

- molecule: "CCCCCCCCC[C@@H]1C[C@@H]2CC[C@H]3[C@@H](C(=O)OCCCCN=C(N)N)[C@@H](C)N=C(N1)N23"
  assignedClass: "label 0"

## Input What did the test return for `O=C(NNc1ccccc1)c1ccncc1` ?
## Output label 0

====

Molecular target: Cytochrome P450 2C9 (Homo sapiens) (UniProt P11712)
Sequence (P11712 whole entry, looked up): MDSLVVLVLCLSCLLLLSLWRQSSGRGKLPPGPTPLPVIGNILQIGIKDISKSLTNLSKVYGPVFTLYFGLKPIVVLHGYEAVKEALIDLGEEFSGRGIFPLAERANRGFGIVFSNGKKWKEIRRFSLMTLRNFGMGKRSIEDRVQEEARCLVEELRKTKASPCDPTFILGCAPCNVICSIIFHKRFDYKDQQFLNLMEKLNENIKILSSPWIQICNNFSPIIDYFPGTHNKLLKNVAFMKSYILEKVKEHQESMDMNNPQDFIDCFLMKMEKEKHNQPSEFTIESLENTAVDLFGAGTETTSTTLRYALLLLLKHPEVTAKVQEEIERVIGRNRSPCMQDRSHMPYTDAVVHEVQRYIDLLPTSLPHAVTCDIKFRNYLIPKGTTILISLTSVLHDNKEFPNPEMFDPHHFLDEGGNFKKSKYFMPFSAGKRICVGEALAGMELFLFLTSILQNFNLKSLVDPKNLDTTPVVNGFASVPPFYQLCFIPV
Test: qHTS Assay for Inhibitors and Substrates of Cytochrome P450 2C9 (AID 883); further: nearly all actives have a fitted effect of over 60% in size
Settings: recombinant CYP2C9, luciferin-H luminescence, 60 min; series mostly up to 57.1 µM
Records with an inconclusive call do not appear. Calls of active or inactive are those of the source. Calls follow the shape of the dose curve; as a rule, active = well fitted inhibition curve with a large enough effect; inconclusive = small, poorly fitted or top-dose-only effect; inactive = no such curve, though single readings can be large or run the other way.
Field 'call' accepts active, inactive

Below, 5 compounds whose answers are already recorded.
- molSmiles: "S=C(S)O[C@@H]1C[C@@H]2C[C@H]1[C@@H]1CCC[C@H]21"
  assignedClass: "active"
- molSmiles: "Cc1nc2c(O)cccc2c(=O)[nH]1"
  assignedClass: "active"
- molSmiles: "CC#CCOC(=O)c1c(C)nc2sc3c(c2c1N)CC[C@@H](O)C3"
  assignedClass: "inactive"
- molSmiles: "CCCN=C(N)NCCC[C@H](N)C(=O)O"
  assignedClass: "active"
- molSmiles: "Cc1c(C(=O)NN2CCOCC2)nn(-c2ccc(Cl)cc2Cl)c1-c1ccc(I)cc1"
  assignedClass: "active"

## Input What did the test return for `CNC(=O)Oc1ccc2c(c1)[C@@]1(C)CCN(C)[C@@H]1N2C` ?
## Output inactive

## Input What did the test return for `C=CC(C)(C)c1[nH]c2ccccc2c1C1=C(O)C(=O)C(c2c[nH]c3c(CC=C(C)C)cccc23)=C(O)C1=O` ?
## Output active

## Input What did the test return for `CCCCC#Cc1nc(NC)c2ncn([C@@H]3O[C@@H](CO)[C@H](O)[C@H]3O)c2n1` ?
## Output active

## Input What did the test return for `CCCCCN=c1ccn(Cc2ccccc2)c2ccccc12` ?
## Output active

## Input What did the test return for `COc1cc(N)c(Cl)cc1C(=O)N[C@H]1CCN(CCCOc2ccc(F)cc2)C[C@@H]1OC` ?
## Output active

====

Assay: qHTS to identify inhibitors of the type 1 interferon - major histocompatibility complex class I in skeletal muscle: primary screen against the NCATS Mechanism Interrogation Plate v5.0 (MIPE) Libary (AID 1347411); further: nearly all actives have a fitted effect of over 65% in size
Details: iHSKM cells + IFN-b, HiBiT-tagged MHC-I luminescence, 24 h; series mostly up to 45.8 µM
Records with an inconclusive call do not appear. Activity calls are given as the source filed them. Calls come from the whole dose curve; as a rule, active = well fitted inhibition curve with a large enough effect; inconclusive = small, poorly fitted or top-dose-only effect; inactive = no such curve, though single readings can be large or run the other way.
Field 'call' accepts active, inactive

- compound: "C[C@H]1COCCN1c1cc(C2(S(=O)(=O)C3CC3)CC2)nc(-c2ccc(NC(=S)NCCO)cc2)n1"
  assignedClass: "active"
- compound: "CNCCN(C)Cc1cn[nH]c1-c1ccc(OC2CC(OCCC3CCOCC3)C2)cc1 (centres undefined)"
  assignedClass: "inactive"
- compound: "Cn1nccc1Nc1nccc(-c2ccn([C@H](CO)c3ccc(Cl)c(F)c3)c(=O)c2)n1"
  assignedClass: "inactive"
- compound: "O=C(NOCCO)c1cc(CN2OCCCC2=O)c(F)c(F)c1Nc1ccc(I)cc1F"
  assignedClass: "inactive"
- compound: "CN1C/C=C/CCOc2cccc(c2)-c2ccnc(n2)Nc2cccc(c2)C1"
  assignedClass: "active"
- compound: "COc1cc2nc(-c3cc(F)ccc3O)nc(N[C@@H]3CNC[C@H]3C(C)(C)O)c2cc1OC"
  assignedClass: "active"

## Input What did the test return for `C=CC(=O)Nc1cccc(C)c1Nc1ncc2cc(-c3c(Cl)c(OC)cc(OC)c3Cl)ccc2n1` ?
## Output active

## Input What did the test return for `CNS(=O)(=O)c1ccc2c(c1)/C(=C/c1[nH]c3c(c1CCCN1CCN(C)CC1)CCCC3)C(=O)N2` ?
## Output active

## Input What did the test return for CC(C)C(N)C(=O)OCC(CO)OCn1cnc2c(=O)[nH]c(N)nc21 (centres undefined) ?
## Output inactive

====

Target: 3',5'-cyclic-AMP phosphodiesterase 4B (Homo sapiens) (UniProt Q07343)
Sequence (Q07343 whole entry, looked up): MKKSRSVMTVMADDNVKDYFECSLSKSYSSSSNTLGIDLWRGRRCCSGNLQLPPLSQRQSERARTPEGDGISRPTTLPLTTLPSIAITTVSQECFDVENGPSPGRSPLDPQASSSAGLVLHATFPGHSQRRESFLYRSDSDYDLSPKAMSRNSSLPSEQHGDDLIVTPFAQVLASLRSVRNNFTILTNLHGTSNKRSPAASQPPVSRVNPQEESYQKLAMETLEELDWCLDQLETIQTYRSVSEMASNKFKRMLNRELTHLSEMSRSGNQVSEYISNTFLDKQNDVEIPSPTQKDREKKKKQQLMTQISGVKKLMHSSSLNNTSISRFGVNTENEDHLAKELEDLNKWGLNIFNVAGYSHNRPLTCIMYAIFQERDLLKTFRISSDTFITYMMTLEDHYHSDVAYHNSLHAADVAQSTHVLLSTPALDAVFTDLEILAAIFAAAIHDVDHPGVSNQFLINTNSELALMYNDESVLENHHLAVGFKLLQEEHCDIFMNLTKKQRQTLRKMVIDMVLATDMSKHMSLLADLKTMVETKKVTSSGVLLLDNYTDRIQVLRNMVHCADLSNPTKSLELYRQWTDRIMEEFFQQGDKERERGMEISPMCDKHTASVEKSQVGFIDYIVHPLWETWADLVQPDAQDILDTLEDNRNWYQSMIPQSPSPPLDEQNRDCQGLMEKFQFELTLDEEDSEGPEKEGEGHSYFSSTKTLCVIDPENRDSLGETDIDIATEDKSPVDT
Assay: qHTS Assay for Inhibitors of PDE-IV (AID 607); further: % of control where 0% means no effect
Conditions: HEK293 ACTOne CNG channel cells, membrane potential fluorescence; series mostly up to 22.9 µM
Inconclusive results are not listed. Activity calls are given as the source filed them. Calls come from the whole dose curve; as a rule, active = well fitted activation curve with a large enough effect in the main read-out, with a control signal flat (not every such curve was filed as active); inconclusive = small, poorly fitted or top-dose-only effect, or effect the other way, or a change in a side signal; inactive = flat fitted curve, though single readings scatter.
Field 'call' accepts true (1) (active), false (0) (inactive)

- compound: "COc1cc2nc(N3CCN(C(=O)[C@H]4CCCO4)CC3)nc(N)c2cc1OC"
  assignedClass: "false (0)"

## Input What did the test return for NC1(C(=O)O)CC(C(=O)O)C1 (stereo not drawn) ?
## Output false (0)

## Input What did the test return for `CCNCCCNCCCNCCCNCC` ?
## Output false (0)

## Input What did the test return for `CN(C)CCCSC(=N)N` ?
## Output false (0)

## Input What did the test return for `COc1ccc([N+](=O)[O-])c2c1CCN2C(=O)CC[C@H](N)C(=O)O` ?
## Output false (0)

## Input What did the test return for `NC1(C(=O)O)C[C@@H](C(=O)O)[C@H](C(=O)O)C1` ?
## Output false (0)

====

Molecular target: D(1A) dopamine receptor (Homo sapiens) (UniProt P21728)
Sequence (P21728 whole entry, looked up): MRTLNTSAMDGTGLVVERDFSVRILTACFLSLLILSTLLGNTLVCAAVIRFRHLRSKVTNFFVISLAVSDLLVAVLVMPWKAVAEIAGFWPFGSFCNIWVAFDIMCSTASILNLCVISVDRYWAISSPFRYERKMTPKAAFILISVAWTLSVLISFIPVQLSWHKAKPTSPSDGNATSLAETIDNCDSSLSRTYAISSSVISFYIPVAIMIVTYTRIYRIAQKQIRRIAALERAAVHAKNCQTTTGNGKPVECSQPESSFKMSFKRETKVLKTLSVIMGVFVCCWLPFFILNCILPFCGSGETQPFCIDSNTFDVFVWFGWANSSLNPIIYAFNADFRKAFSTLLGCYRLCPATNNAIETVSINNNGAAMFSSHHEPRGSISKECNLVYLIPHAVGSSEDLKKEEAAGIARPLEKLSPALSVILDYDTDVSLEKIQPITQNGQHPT
Experiment: HTS Assay for Allosteric Agonists of the Human D1 Dopamine Receptor: Primary Screen for Antagonists (AID 488983);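 further: calcium flux response to an EC80 dopamine challenge measured with no-wash dye; nearly all actives have a fitted effect of over 65% in size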
Conditions: D1 receptor cell assay, antagonist mode, qHTS titration; series mostly up to 41.8 µM
Records with an inconclusive call do not appear. The source made the active and inactive calls. Calls come from the whole dose curve; as a rule, active = well fitted inhibition curve with a large enough effect; inconclusive = small, poorly fitted or top-dose-only effect, or effect the other way; inactive = flat fitted curve, though single readings scatter.
experimentalEndpoint: outcome

Solved cases (5 shown):
- molSmiles: "N.N.O=C(O)C1(C(=O)O)CCC1.[Pt+2]"
  outcome: "inactive"
- molSmiles: "C1CCC(N=C(NC23CC4CC(CC(C4)C2)C3)N2CCOCC2)CC1"
  outcome: "inactive"
- molSmiles: "Nc1c(S(=O)(=O)O)cc(Nc2ccc(Nc3nc(Cl)nc(Nc4ccc(S(=O)(=O)O)cc4)n3)c(S(=O)(=O)O)c2)c2c1C(=O)c1ccccc1C2=O"
  outcome: "inactive"
- molSmiles: "N#C/C(=C\\c1ccc(O)c(O)c1)C(=O)Nc1ccccc1"
  outcome: "inactive"
- molSmiles: "S=C(Nc1ccccc1)Nc1nccs1"
  outcome: "inactive"

Please turn your attention to the following entry.
## Input Could you share what outcome was measured for `Cc1cccc(/C=C/c2ccccc2)n1` , tested on D(1A) dopamine receptor (Homo sapiens) (UniProt P21728)?
## Output inactive

====

Experiment: Vero-766 cells viability qHTS against the NCATS CANVASS Library: Counterscreen for Zika virus inhibition assay (AID 1347394); further: nearly all actives have a fitted effect of over 60% in size; further: potency means the concentration at half of the fitted maximal effect
Conditions: Vero 766 viability, CellTiter-Glo luminescence, 72 h; series mostly up to 46.1 µM
Inconclusive results are not listed. Calls of active or inactive are those of the source. Calls come from the whole dose curve; as a rule, active = well fitted cell-killing curve with a large enough effect; inconclusive = small, poorly fitted or top-dose-only effect; inactive = flat fitted curve, though single readings scatter. Numbered stars: 1 amine (or outer) side, 2 acyl side, 3 side chain; on linkers, the order of the positions; unused ones are H or OH. Bridge positions count the residues as written; N and C are the ends. Square brackets hold non-standard residues; d marks the D form. Peptide text beside a SMILES is read from it. * marks the point of attachment. ξ: configuration not given here. Phe(3R-OH) = O=C([C@@H](N[*:1])[C@H](O[*:3])c1ccccc1)[*:2]; NMeTrp(4-OMe) = CN[C@@H](Cc1c[nH]c2cccc(OC)c12)C(=O)O; ξThr(3R)(O-yl) = C[C@@H](O[*:3])C(N[*:1])C(=O)[*:2]; NMeThr(3ξ) = CN[C@H](C(=O)O)C(C)O; NMeL = CN[C@@H](CC(C)C)C(=O)O; NMeV = CN[C@H](C(=O)O)C(C)C; ξIle = CC[C@H](C)C(N)C(=O)O; Octanoyl = CCCCCCCC(=O)*; ξV = CC(C)C(N)C(=O)O
experimentalEndpoint: Potency

Solved cases (5 shown):
- molecule: "C[C@@]12CCC[C@@](C)(C(=O)O)[C@H]1CC[C@]13C[C@H]4C[C@H](O[C@@]4(C)C1)[C@H]32"
  resultValue: "inactive"
- molecule: "CC(C)=CCC/C(C)=C/Cc1c(O)c(CC=C(C)C)c(O)c2c(=O)c3cc(O)ccc3oc12"
  resultValue: "26.3 µM (active)"
- molecule: "O=C(OC1Cc2c(O)cc(O)cc2OC1c1cc(O)c(O)c(O)c1)c1cc(O)c(O)c(O)c1 (stereo not drawn)"
  resultValue: "inactive"
- molecule: "CCCCCCCC(=O)N[C@@H](CC(C)C)C(=O)N[C@H](C=O)CCC(=O)O (Octanoyl-Leu-Glu-aldehyde)"
  resultValue: "inactive"
- molecule: "C=C[C@]1(C)CC[C@@H]([C@H](C)C(=O)/C=C/C(C)C)O1"
  resultValue: "inactive"

## Input Reported Potency, molecule `COc1ccc(/C=C2\COc3cc(O)ccc3C2=O)cc1` : ____
## Output inactive

## Input Reported Potency, molecule CN1C(=O)C2C(N=CN2C)N(C)C1=O (stereo not drawn) : ____
## Output inactive

## Input Reported Potency, molecule `C=CC(C)(C)C(=O)[C@@H](C)[C@@H]1CC[C@](C)(C=C)O1` : ____
## Output inactive

## Input Reported Potency, molecule `CN1C(=O)[C@]23SS[C@@]1(C)C(=O)N2[C@H]1Nc2ccccc2[C@]1(c1c[nH]c2ccccc12)[C@@H]3O` : ____
## Output 6.6 µM (active)

## Input Reported Potency, molecule `CCC1=C2CCCN3C(=O)O[C@H]([C@H]1OC(C)=O)[C@H]23` : ____
## Output inactive

## Input Reported Potency, molecule `CO[C@H]1/C=C/CC[C@@H](S[C@@H]2O[C@H](CO)[C@@H](O)[C@H](O)[C@H]2O)CC(=O)O[C@@H](/C(C)=C/[C@H](C)C(=O)CCCC2CC(=O)NC(=O)C2)[C@@H](C)[C@@H]1O` : ____
## Output inactive

## Input Reported Potency, molecule CC[C@H](C)C(NC(=O)[C@@H](NC)C(C)C)C(=O)NC1C(=O)N(C)[C@@H](C(C)O)C(=O)N[C@@H](C(C)C)C(=O)N(C)[C@@H](CC(C)C)C(=O)NC(C(C)C)C(=O)N(C)[C@@H](C(C)C)C(=O)N(C)[C@@H](Cc2c[nH]c3cccc(OC)c23)C(=O)N[C@@H](C(C)C)C(=O)N[C@@H]([C@H](O)c2ccccc2)C(=O)N[C@@H](C(C)C)C(=O)O[C@@H]1C (stereo partly drawn) (H-[NMeV][ξIle][ξThr(3R)(O-yl)][NMeThr(3ξ)]V[NMeL][ξV][NMeV][NMeTrp(4-OMe)]V[Phe(3R-OH)]V; ester 3-C) : ____
## Output inactive

## Input Reported Potency, molecule `CO[C@@H]1C[C@@H](C[C@H]2CC[C@H](C)[C@H]([C@@H](C)C(=O)O)O2)O[C@]2(O[C@](C)([C@H]3CC[C@@](C)([C@@H]4O[C@@H]([C@H]5O[C@](C)(O)[C@H](C)C[C@@H]5C)C[C@@H]4C)O3)C[C@H]2C)[C@@H]1C` : ____
## Output 4.67 µM (active)
